method_summary: Bleomycin (BLM)-induced lung fibrosis in mice: body weight over 21 days
Type: in vivo, Mouse/C57BL/6
experimental_context: 8-Nov; doses as Table 1

compound	Percent Change in Body Weight, %
Cc1ccc(=O)n(-c2ccccc2)c1 [Pirfenidone (+), 5-methyl-1-phenylpyridin-2(1H)-one]	0.3
Cc1ccc2c([nH]c(=O)c3c(=O)cc(C(=O)OCCC(C)C)oc32)c1C [Repirinast]	0.2
CCSc1nc2ccccc2[nH]1 [Bemithyl, 2-Ethylsulfanyl-1H-benzoimidazole]	0.0

----------
method_summary: Bleomycin (BLM)-induced lung fibrosis in mice: body weight over 21 days
Format: in vivo, Mouse/C57BL/6
experimental_context: 14-Nov; group mean; doses as Table 1
# key: entry, value: Body Weight
measurement_label: Body Weight (g)

compound	measurement_label	quantitative_result
C[C@@H]1C[C@H]2[C@@H]3CCC4=CC(=O)C=C[C@]4(C)[C@@]3(F)[C@@H](O)C[C@]2(C)[C@@]1(O)C(=O)CO [Dexamethasone]	Body Weight	22.7
O=C(Nc1ccc2[nH]c(=O)oc2c1)C(=O)N1CCC(Cc2ccc(F)cc2)CC1 [Radiprodil]	Body Weight	21.8
CCSc1nc2ccccc2[nH]1 [Bemithyl, 2-Ethylsulfanyl-1H-benzoimidazole]	Body Weight	23.5
Cc1ccc2c([nH]c(=O)c3c(=O)cc(C(=O)OCCC(C)C)oc32)c1C [Repirinast]	Body Weight	21.8
C[C@@H]([C@H](O)c1ccc(O)cc1)N1CCC(Cc2ccccc2)CC1 (stereo in doubt) [Ifenoprodil]	Body Weight	23.1
Cc1ccc(=O)n(-c2ccccc2)c1 [Pirfenidone (+), 5-methyl-1-phenylpyridin-2(1H)-one]	Body Weight	21.0
Brc1ccc(NC2C3CC4CC(C3)CC2C4)cc1 (stereo not shown) [Bromantane, N-(4-bromophenyl)adamantan-2-amine]	Body Weight	23.7

----------
method_summary: Bleomycin (BLM)-induced lung fibrosis in mice: body weight over 21 days
Format: in vivo, Mouse/C57BL/6
experimental_context: 7-Nov; group mean; doses as Table 1
# key: entry, value: Body Weight

compound	Body Weight (g)
Cc1ccc(=O)n(-c2ccccc2)c1 [Pirfenidone (+), 5-methyl-1-phenylpyridin-2(1H)-one]	24.0
O=C(Nc1ccc2[nH]c(=O)oc2c1)C(=O)N1CCC(Cc2ccc(F)cc2)CC1 [Radiprodil]	23.6
C[C@@H]([C@H](O)c1ccc(O)cc1)N1CCC(Cc2ccccc2)CC1 (stereo in doubt) [Ifenoprodil]	24.4
Brc1ccc(NC2C3CC4CC(C3)CC2C4)cc1 (stereo not shown) [Bromantane, N-(4-bromophenyl)adamantan-2-amine]	24.8
C[C@@H]1C[C@H]2[C@@H]3CCC4=CC(=O)C=C[C@]4(C)[C@@]3(F)[C@@H](O)C[C@]2(C)[C@@]1(O)C(=O)CO [Dexamethasone]	24.3
CCSc1nc2ccccc2[nH]1 [Bemithyl, 2-Ethylsulfanyl-1H-benzoimidazole]	24.6
Cc1ccc2c([nH]c(=O)c3c(=O)cc(C(=O)OCCC(C)C)oc32)c1C [Repirinast]	23.5

----------
# key: entry, value: Fatality Number
Test system: BLM-induced fibrosis
method_summary: Bleomycin (BLM)-induced lung fibrosis in mice: mortality rate over 21 days
Type: in vivo, Mouse/C57BL/6
experimental_context: deaths/mice per group over 21 days; doses as Table 1; Vehicle 2/10
measurement_label: Fatality Number

compound	tested_target	result
CCSc1nc2ccccc2[nH]1	BLM-induced fibrosis	1/10
Cc1ccc(=O)n(-c2ccccc2)c1 [Pirfenidone (+), 5-methyl-1-phenylpyridin-2(1H)-one]	BLM-induced fibrosis	2/10
O=C(Nc1ccc2[nH]c(=O)oc2c1)C(=O)N1CCC(Cc2ccc(F)cc2)CC1	BLM-induced fibrosis	2/10
Cc1ccc2c([nH]c(=O)c3c(=O)cc(C(=O)OCCC(C)C)oc32)c1C [Repirinast]	BLM-induced fibrosis	1/10
Brc1ccc(NC2C3CC4CC(C3)CC2C4)cc1 (stereo not shown)	BLM-induced fibrosis	3/10
C[C@@H]([C@H](O)c1ccc(O)cc1)N1CCC(Cc2ccccc2)CC1 (stereo in doubt)	BLM-induced fibrosis	0/10
C[C@@H]1C[C@H]2[C@@H]3CCC4=CC(=O)C=C[C@]4(C)[C@@]3(F)[C@@H](O)C[C@]2(C)[C@@]1(O)C(=O)CO	BLM-induced fibrosis	2/10

----------
# key: entry, value: Body Weight
method_summary: Bleomycin (BLM)-induced lung fibrosis in mice: body weight over 21 days
Assay type: in vivo, Mouse/C57BL/6
experimental_context: 26-Nov; group mean; doses as Table 1
Experimental: The mouse species or strain was Mouse/C57BL/6, the mice being 8-10 week old males. Nine groups of 10 mice each were obtained from Charles River Laboratories. Each group was randomized based on body weight. Bleomycin (BLM) was obtained from Euroasias. The mice were anesthetized with isoflurane/O2 mixture. […] Body Weight: The body weights were measured over 21 days using a laboratory balance.
measurement_label: Body Weight

molecule	result
C[C@@H]1C[C@H]2[C@@H]3CCC4=CC(=O)C=C[C@]4(C)[C@@]3(F)[C@@H](O)C[C@]2(C)[C@@]1(O)C(=O)CO	24.5 g
CCSc1nc2ccccc2[nH]1	23.7 g
O=C(Nc1ccc2[nH]c(=O)oc2c1)C(=O)N1CCC(Cc2ccc(F)cc2)CC1	24.0 g
Brc1ccc(NC2C3CC4CC(C3)CC2C4)cc1 (stereo not shown)	23.8 g
Cc1ccc(=O)n(-c2ccccc2)c1 [Pirfenidone (+), 5-methyl-1-phenylpyridin-2(1H)-one]	20.9 g
Cc1ccc2c([nH]c(=O)c3c(=O)cc(C(=O)OCCC(C)C)oc32)c1C [Repirinast]	21.9 g
C[C@@H]([C@H](O)c1ccc(O)cc1)N1CCC(Cc2ccccc2)CC1 (stereo in doubt)	24.6 g

----------
# key: entry, value: Percent Change in Body Weight
method_summary: Bleomycin (BLM)-induced lung fibrosis in mice: body weight over 21 days
Format: in vivo, Mouse/C57BL/6
experimental_context: 8-Nov; doses as Table 1

compound	Percent Change in Body Weight (%)
O=C(Nc1ccc2[nH]c(=O)oc2c1)C(=O)N1CCC(Cc2ccc(F)cc2)CC1 [Radiprodil]	0.0
Brc1ccc(NC2C3CC4CC(C3)CC2C4)cc1 (stereo not shown) [Bromantane, N-(4-bromophenyl)adamantan-2-amine]	−0.1
C[C@@H]([C@H](O)c1ccc(O)cc1)N1CCC(Cc2ccccc2)CC1 (stereo in doubt) [Ifenoprodil]	−0.1
C[C@@H]1C[C@H]2[C@@H]3CCC4=CC(=O)C=C[C@]4(C)[C@@]3(F)[C@@H](O)C[C@]2(C)[C@@]1(O)C(=O)CO [Dexamethasone]	−0.2
